Hey, just so you know, these numbers are from patent US6214795A.

Molecular target: FGFR2-IIIC (Homo sapiens)
Test: FGF receptor binding assay: inhibition of 125I-bFGF binding to FGF receptor
Settings: Table 3 peptides; inhibition of bFGF binding to FGFR2-IIIC
pIC50: −log10 of the molar value. No end group written: not given here.
observable: pIC50

Identify the measured pIC50 of GYFQYMALYG [Compound 567, H-GYFQYMALYG-OH*TFA] for FGFR2-IIIC (Homo sapiens).
< 4.00

Now consider HYLRQYLMRFR-NH2 [Compound 672, H-HYLRQYLMRFR-NH*TFA] .
~5.10

Now consider GAHYLRQYLMRFRG-NH2 [Compound 668, H-GAHYLRQYLMRFRG-NH*TFA] .
~5.52

Now consider AHYLRQYLMRFR-NH2 [Compound 673, H-AHYLRQYLMRFR-NH*TFA] .
~5.10

Now consider LRQYLMRFR-NH2 [Compound 670, H-LRQYLMRFR-NH*TFA] .
~3.92

Now consider GAHYLRQYMMRFLG-NH2 [Compound 669, H-GAHYLRQYMMRFLG-NH*TFA] .
~4.70

---
Identify the measured pIC50 of GKALEWYKSLMRMG-NH2 [Compound 661, H-GKALEWYKSLMRMG-NH*TFA] for FGFR2-IIIC (Homo sapiens).
~3.52

Now consider GFLMMYMMG [Compound 566, H-GFLMMYMMG-OH*TFA] .
< 4.00

Now consider GAHYLRQYLMRFLG-NH2 [Compound 658, H-GAHYLRQYLMRFLG-NH*TFA] .
~5.10

Now consider YLRQYLMRFR-NH2 [Compound 671, H-YLRQYLMRFR-NH*TFA] .
~5.10

----------
Recorded IC50 values for a group of substances are listed next.
Target: FGFR2-IIIC (Homo sapiens, UniProt P21802)
Sequence (P21802 22-377 limits assumed, species assumed): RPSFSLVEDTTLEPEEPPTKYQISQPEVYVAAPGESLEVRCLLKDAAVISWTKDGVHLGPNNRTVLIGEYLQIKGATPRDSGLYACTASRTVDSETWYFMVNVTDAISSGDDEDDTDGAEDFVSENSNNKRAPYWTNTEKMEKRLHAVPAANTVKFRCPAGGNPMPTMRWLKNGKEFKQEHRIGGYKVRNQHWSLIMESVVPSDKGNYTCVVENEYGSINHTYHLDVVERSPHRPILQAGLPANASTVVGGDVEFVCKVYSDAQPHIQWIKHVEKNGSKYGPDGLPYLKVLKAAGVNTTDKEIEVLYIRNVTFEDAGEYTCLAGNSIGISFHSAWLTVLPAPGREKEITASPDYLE
Assay: FGF receptor binding assay: inhibition of 125I-bFGF binding to FGF receptor
Details: Table 3 peptides; values given in mM
No end group written: not given here.

Identify the measured IC50 of Ac-GHDGEMYG-OH [Compound 660, Acetyl-GHDGEMYG-OH] for FGFR2-IIIC (Homo sapiens, UniProt P21802).
> 1 mM

Next up:
Identify the measured IC50 of GSLMRMG-NH2 [Compound 663, H-GSLMRMG-NH*TFA] for FGFR2-IIIC (Homo sapiens, UniProt P21802).
> 1 mM

----------
Recorded IC50 values for a group of substances are listed next.
Molecular target: FGFR2-IIIC (Homo sapiens, UniProt P21802)
Experiment: FGF receptor binding assay: inhibition of 125I-bFGF binding to FGF receptor
Conditions: Table 3 peptides; inhibition of bFGF binding to FGFR2-IIIC
No end group written: not given here.

Using the record for GYLAQYMARG-NH2 [Compound 662, H-GYLAQYMARG-NH*TFA] , report its IC50.
~300 µM

Now consider GYYLLWMVG [Compound 564, H-GYYLLWMVG-OH*TFA] .
> 100 µM

Now consider GFLGKYMESLMRMG-NH2 [Compound 659, H-GFLGKYMESLMRMG-NH*TFA] .
~300 µM

Now consider GYLYLYMVG [Compound 656, H-GYLYLYMVG-OH*TFA] .
> 100 µM

Now consider GDVFLSMYQFSVIG [Compound 622, H-GDVFLSMYQFSVIG-OH*TFA] .
> 100 µM

Now consider GAHNLRQYLMRFLG [Compound 623, H-GAHNLRQYLMRFLG-OH*TFA] .
~120 µM
